Cited source for all entries: patent US20250376533A1

# key: entry, value: EC50
- target_of_assay: T1, human PD-L1 antigen (ACROBiosystems) (human, UniProt Q9NZQ7 19-238)
- T1 construct: Bought antigen coated on ELISA plates
- experiment: ELISA, coated antigen
result_type: EC50 (nM)

binder	assay_value
anti-PD-L1 monoclonal antibody 1029 (antibody, human IgG1, V domains shown) VH: EVQLVESGGGLVQPGGSLRLSCAASGFTLDYYSKCWFRQAPGKEREWVSCIGSSDGSTYYADSVKGRFTISRDNAKNTVYLQMNSLRAEDTAVYYCAARNGGPLTIENFFDYWGQGTQVTVSS	0.012
anti-PD-L1 monoclonal antibody 1031 (antibody, human IgG1, V domains shown) VH: EVQLVESGGGLVQPGGSLRLSCAASGFTFEYYTKCWFRQAPGKEREWVSCISTSEGSTYYADSVKGRFTISRDNAKNTVYLQMNSLRAEDTAVYYCAARKGGPLTIENFFDYWGQGTQVTVSS	0.02
anti-PD-L1 monoclonal antibody 1541 (antibody, human IgG1, V domains shown) VH: EVQLVESGGGLVQPGGSLRLSCAASGFTFDYYTQCWFRQAPGKEREWVSCISSSEGSTYYADSVKGRFTISRDNSKNTVYLQMNSLKTEDTAVYYCAARKGGPLTIENFFDYWGQGTQVTVSS	0.014
anti-PD-L1 monoclonal antibody 1102 (antibody, human IgG1, V domains shown) VH: EVQLVESGGGLVQPGGSLRLSCAASGFTFDYYTQCWFRQAPGKEREWVSCISSSEGSTYYADSVKGRFTISRDNAKNTVYLQMNSLRAEDTAVYYCAARKGGPLTIENFFDYWGQGTQVTVSS	0.013
